System: α1
Test: α1 IC50
Format: binding

molecule	IC50 (nM)
Oc1ccc2c(c1)OC(CNCCCCc1ccccc1)CC2 (stereo not shown)	80
Fc1ccc(CNCC2CCc3ccccc3O2)cc1 (stereo not shown) [reference compound]	1280
Oc1ccc2c(c1)OC(CNCc1ccccc1)CC2 (stereo not shown)	1140
c1ccc(CNCC2CCc3ccccc3O2)cc1 (stereo not shown) [reference compound]	630

====

Target: UniProtKB P08908
Sequence (P08908 whole entry, species assumed): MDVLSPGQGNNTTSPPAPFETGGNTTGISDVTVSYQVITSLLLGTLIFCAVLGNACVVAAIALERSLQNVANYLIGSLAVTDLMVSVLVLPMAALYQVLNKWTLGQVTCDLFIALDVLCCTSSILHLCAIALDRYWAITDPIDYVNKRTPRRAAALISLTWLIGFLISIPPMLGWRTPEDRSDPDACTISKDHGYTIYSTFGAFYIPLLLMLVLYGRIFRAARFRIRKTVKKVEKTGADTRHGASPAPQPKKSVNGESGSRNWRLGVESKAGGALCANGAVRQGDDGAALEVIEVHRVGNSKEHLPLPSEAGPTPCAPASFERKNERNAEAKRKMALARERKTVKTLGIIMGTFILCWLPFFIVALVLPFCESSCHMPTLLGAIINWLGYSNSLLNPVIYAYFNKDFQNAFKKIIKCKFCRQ
Test: biochemical
Type: binding
recorded.metric: IC50 (nM)

compound	unit.symbol	value.observed
Oc1ccc2c(c1)OC(CNCc1ccccc1)CC2 (stereo not shown)	nM	104
